Below, each of the variants is paired with its reported reverse-splicing fitness value.
B1: Azoarcus group I ribozyme (parent)
chain: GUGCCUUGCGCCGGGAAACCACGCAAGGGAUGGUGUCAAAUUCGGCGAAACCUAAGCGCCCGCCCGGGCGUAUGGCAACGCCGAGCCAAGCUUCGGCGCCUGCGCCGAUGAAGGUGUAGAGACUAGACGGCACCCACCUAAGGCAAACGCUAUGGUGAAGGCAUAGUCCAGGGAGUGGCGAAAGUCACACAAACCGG

- Variants of: B1
- METHOD DESCRIPTION: reverse-splicing fitness (ratio to wild type); higher = more active; in vitro selection; Mg2+ level not given
Number, no unit, nothing else.

- MUTATION ID: "C82A A145C C150U C169G U176G"
  reverse-splicing fitness: 0.00628
- MUTATION ID: "A120C C150U C169U U176G"
  reverse-splicing fitness: 0.0106
- MUTATION ID: "A111G A120C C150U C169G"
  reverse-splicing fitness: 0.0131
- MUTATION ID: "A111U A120G A145G C150A U176G"
  reverse-splicing fitness: 0.00712
- MUTATION ID: "C82G A111C A120C A145U C150G U176G"
  reverse-splicing fitness: 0.00383

Query: Fill in: reverse-splicing fitness of C82U A111C A120C A145G C150U C169A U176G is ___
Reply: 0.00622

Query: Fill in: reverse-splicing fitness of C82A A120G C150A U176A is ___
Reply: 0.0118

These entries and their values trace back to the RNAGym collection of RNA variant scans (doi:10.1093/molbev/msab373).
